biological target: human LPAR1 (Homo sapiens); construct: host or cells: TangoEDG2-bla U2OS cells; experiment: Arrestin assay (Arrestin Reporter EDG2-bla U2OS), inhibition of LPA-stimulated signal; assay type: cell-based; details: TangoEDG2-bla U2OS cells expressing human LPAR1; 0.25 μM LPA; read-out: Arrestin Reporter EDG2-bla U2OS Human IC50
Sequence (Q92633 whole entry): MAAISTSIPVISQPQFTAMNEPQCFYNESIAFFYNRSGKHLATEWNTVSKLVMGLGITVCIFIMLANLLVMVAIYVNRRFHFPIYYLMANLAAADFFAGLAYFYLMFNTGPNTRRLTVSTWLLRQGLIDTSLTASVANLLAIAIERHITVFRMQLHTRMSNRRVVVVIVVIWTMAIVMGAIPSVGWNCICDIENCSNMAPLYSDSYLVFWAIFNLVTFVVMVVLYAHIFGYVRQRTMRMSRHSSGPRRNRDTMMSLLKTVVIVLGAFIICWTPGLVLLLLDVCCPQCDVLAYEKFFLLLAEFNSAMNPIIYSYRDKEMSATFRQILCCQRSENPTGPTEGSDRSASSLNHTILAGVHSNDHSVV
pIC50: −log10 of the molar value.
outcome_measure: pIC50

CC(C)c1ccnn1C1(C(=O)Nc2ccc(Cl)cc2OC(F)F)CCN(C[C@H](C(=O)O)C2CCOCC2)CC1 (single isomer, unassigned) : 7.32
CC(C)c1ccnn1C1(C(=O)Nc2ccc(Cl)cc2OC(F)F)CCN([C@H]2C[C@H](C(=O)O)C2)CC1 : 7.29
CC1(C)OCc2cnn(C3(C(=O)Nc4ccc(Cl)cc4OC(F)F)CCN(CC4(C(=O)O)CCOCC4)CC3)c21 : 7.24

[a] CC(C)c1ccnn1C1(C(=O)Nc2ccc(Cl)cc2OC(F)F)CCN([C@H]2C[C@@](C)(C(=O)O)C2)CC1
[b] COC[C@@H](CN1CCC(C(=O)Nc2ccc(Cl)cc2OC(F)F)(n2ncc(F)c2C(C)C)CC1)C(=O)O
Of the two listed items, which has the higher pIC50? First: a Second: b When you have decided, please share the label of that item.
b
(b: 7.58, a: 7.36)
